The reported measurements were obtained from ChEMBL document CHEMBL1153289.

target: Fatty acid-binding protein, adipocyte (Homo sapiens, UniProt P15090); test: Inhibition of human A-FABP by fluorescence polarization assay
Sequence (P15090 whole entry): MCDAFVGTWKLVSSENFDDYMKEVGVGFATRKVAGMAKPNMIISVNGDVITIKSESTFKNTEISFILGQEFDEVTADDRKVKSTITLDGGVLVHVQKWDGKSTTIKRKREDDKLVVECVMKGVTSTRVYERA
Provide the recorded IC50 for the entries that follow.
# value in nM; strip the unit string

QUERY: Supply IC50 value. Item: "O=C(O)c1ccc2c3c(n(Cc4ccccc4)c2c1)CCCC3"
RESULT: 750

QUERY: Supply IC50 value. Item: "O=C(O)c1cccc2c3c(n(Cc4ccc(F)cc4)c12)CCCC3"
RESULT: 830

QUERY: Supply IC50 value. Item: "O=C(O)c1cccc2c3c(n(Cc4ccccc4F)c12)CCCCC3"
RESULT: 710

QUERY: Supply IC50 value. Item: "O=C(O)c1cccc2c3c(n(Cc4cccc(C(F)(F)F)c4)c12)CCCCC3"
RESULT: 1040
